# Test system: fibroblasts
# Assay Explanation: Biofouling and cell adherence at prosthetic materials (dip-coated polymer films); note: key: 0: not superior to native FA (control); +: Superior to native FA; ++: superior to both; +++: outstanding effect
# Assay type: cell-based
# Assay Setup: compared with native FA (control)
Property Measured: Relative differences: effect on biofouling and cell adherence

# annotated cases, reported Relative differences: effect on biofouling and cell adherence shown
# Compound, Result
data = [
    ("CCCCCCCC/C=C(/CCCCCCCC(=O)O)[N+](=O)[O-] [compound 1, 9-nitro cis-oleic acid]", "++"),
    ("CCCCCCCC/C(=C\\CCCCCCCC(=O)O)[N+](=O)[O-] [compound 12, 10-nitro-trans-oleic acid]", "+"),
    ("CCCCCCCC/C=C(/CCCCCCCCCCCCCC(=O)O)[N+](=O)[O-] [compound 8, 15-nitro-cis-15-tetracosenoic acid]", "+"),
    ("CCCCCCCC/C=C(/CCCCCCCCCCCC(=O)O)[N+](=O)[O-] [compound 17, 13-nitro-cis-13-docosenoic acid]", "+"),
    ("CCC=CCC=C(CC=CCC=CCC=CCC=C(CCC(=O)O)[N+](=O)[O-])[N+](=O)[O-]", "+"),
    ("CCCCCC/C=C(/CCCCCCCC(=O)O)[N+](=O)[O-]", "+"),
    ("CCCCC/C=C(/C/C=C\\C/C=C(/C/C=C\\CCCC(=O)O)[N+](=O)[O-])[N+](=O)[O-]", "+"),
    ("CC/C=C\\C/C=C\\C/C=C(/CCCCCCCC(=O)O)[N+](=O)[O-]", "++"),
    ("CC/C=C\\C/C=C\\C/C(=C/C/C=C\\C/C=C\\CCCCCC(=O)O)[N+](=O)[O-]", "++"),
]

Could you now consider this next compound?
Recorded Relative differences: effect on biofouling and cell adherence of CCCCCCCC/C(=C/CCCCCCCC(=O)O)[N+](=O)[O-] [compound 3, 10-nitro-cis-oleic acid] , please.
++

* * *

# System: Murine macrophage-like cells RAW 264.7 and murine L929 fibroblasts
# Assay Explanation: Monocyte/fibroblast co-culture on coated surgical suture material; note: key: 0: not superior to native FA (control); +: Superior to native FA; ++: superior to both; +++: outstanding effect
# Type: cell-based
# Assay Setup: dip-coated suture material, 24 and 48 hours; compared with native FA
Property Measured: Relative effect on profibrotic cytokines and collagen I on suture material

# Compound, Result
records = [
    ("CCCCCCCCCCC/C=C(/CCCCC(=O)O)[N+](=O)[O-] [compound 21, 6-nitro-cis-6-octadecenoic acid]", "+"),
    ("CCCCCCCC/C(=C/CCCCCCCC(=O)O)[N+](=O)[O-] [compound 3, 10-nitro-cis-oleic acid]", "++"),
    ("CCCCC/C=C(/C/C=C\\C/C=C(/C/C=C\\CCCC(=O)O)[N+](=O)[O-])[N+](=O)[O-] [compound 18]", 0),
    ("CCCCCC/C=C(\\CCCCCCCC(=O)O)[N+](=O)[O-] [compound 16, 9-nitro-9-trans-hexadecenoic acid]", "+"),
]

* * *

# Test system: Human epithelial lung cells (A549)
# Assay Explanation: Membrane protein mediated cytotoxicity (NaF) in epithelial cells, MTT assay
# Assay Setup: 10 and 50 μmol, 2 hours preincubation, NaF 1-8 mmol; compared with native FA
Property Measured: Relative effect on NaF-induced cytotoxicity

# Molecule, Result
data = [
    ("CCCCCC=CCC=C(CC=CC/C=C\\CCCC(=O)O)[N+](=O)[O-]", "++"),
    ("CCCCCCCC/C(=C/CCCCCCCC(=O)O)[N+](=O)[O-] [compound 3, 10-nitro-cis-oleic acid]", "+"),
    ("CCCCC/C=C\\C/C(=C\\CCCCCCCC(=O)O)[N+](=O)[O-] [compound 2, 10-nitro-cis-linoleic acid]", "++"),
    ("CCCCCCCC/C=C(/CCCCCCCC(=O)O)[N+](=O)[O-] [compound 1, 9-nitro cis-oleic acid]", "++"),
]

* * *

# Tested on: fibroblasts
# Assay Explanation: Biofouling and cell adherence at prosthetic materials (dip-coated polymer films); note: key: 0: not superior to native FA (control); +: Superior to native FA; ++: superior to both; +++: outstanding effect
# Assay type: cell-based
# Assay Setup: compared with native FA (control)
Property Measured: Relative differences: effect on biofouling and cell adherence

# annotated cases, reported Relative differences: effect on biofouling and cell adherence shown
# Compound, Result
rows = [
    ("CCCCC/C=C\\C/C(=C\\CCCCCCCC(=O)O)[N+](=O)[O-] [compound 2, 10-nitro-cis-linoleic acid]", "++"),
    ("CCCCC/C=C(/C/C=C\\C/C=C\\C/C=C\\C/C=C\\CCC(=O)O)[N+](=O)[O-] [compound 5]", "++"),
    ("CCCCCCCC/C=C(\\CCCCCCCC(=O)O)[N+](=O)[O-] [compound 9, 9-nitro-trans-oleic acid]", "+"),
    ("CCCCCC/C=C(\\CCCCCCCC(=O)O)[N+](=O)[O-] [compound 16, 9-nitro-9-trans-hexadecenoic acid]", "++"),
    ("CCCCCC=CCC=C(CC=CCC=CCCCC(=O)O)[N+](=O)[O-] [compound 14, 11-nitro-5,8,11,14-eicosatrienoic acid]", "+"),
]

Recorded Relative differences: effect on biofouling and cell adherence of CCCCC=C(C=CC=CCCCCCCCC(=O)O)[N+](=O)[O-] [compound 11, 13-nitro-octadeca-9,11,13-trienoic acid] , please.
+

Recorded Relative differences: effect on biofouling and cell adherence of CCCCCC=CCC=C(CC=CC/C=C\CCCC(=O)O)[N+](=O)[O-] [compound 22] , please.
+

* * *

# Test system: female Sprague-Dawley rats
# Assay Explanation: Fibrogenesis in an in-vivo model of soft implant implantation
# Design: species or system rat
# Assay Setup: subcutaneous implants, 120 days, compared with native FA
Property Measured: Relative effect of surface coating on fibrogenesis around silicone implants

# Compound, Result
records = [
    ("CCCCCCCC/C=C(\\CCCCCCCC(=O)O)[N+](=O)[O-] [compound 9, 9-nitro-trans-oleic acid]", "+"),
    ("CCCCCCCCCCC/C=C(/CCCCC(=O)O)[N+](=O)[O-] [compound 21, 6-nitro-cis-6-octadecenoic acid]", "+"),
    ("CCCCCCCC/C=C(/CCCCCCCCCCCCCC(=O)O)[N+](=O)[O-] [compound 8, 15-nitro-cis-15-tetracosenoic acid]", "+"),
    ("CCCCCC/C=C(\\CCCCCCCC(=O)O)[N+](=O)[O-] [compound 16, 9-nitro-9-trans-hexadecenoic acid]", 0),
]

* * *

# Target Or Test System: TRPV-1 (Mus musculus, UniProt Q704Y3)
# Construct: Whole retinas were isolated and cut into 100 μm slices using a tissue slicer; from tissue; host or cells: mouse retinal slices (100 μm)
# Sequence (Q704Y3 whole entry): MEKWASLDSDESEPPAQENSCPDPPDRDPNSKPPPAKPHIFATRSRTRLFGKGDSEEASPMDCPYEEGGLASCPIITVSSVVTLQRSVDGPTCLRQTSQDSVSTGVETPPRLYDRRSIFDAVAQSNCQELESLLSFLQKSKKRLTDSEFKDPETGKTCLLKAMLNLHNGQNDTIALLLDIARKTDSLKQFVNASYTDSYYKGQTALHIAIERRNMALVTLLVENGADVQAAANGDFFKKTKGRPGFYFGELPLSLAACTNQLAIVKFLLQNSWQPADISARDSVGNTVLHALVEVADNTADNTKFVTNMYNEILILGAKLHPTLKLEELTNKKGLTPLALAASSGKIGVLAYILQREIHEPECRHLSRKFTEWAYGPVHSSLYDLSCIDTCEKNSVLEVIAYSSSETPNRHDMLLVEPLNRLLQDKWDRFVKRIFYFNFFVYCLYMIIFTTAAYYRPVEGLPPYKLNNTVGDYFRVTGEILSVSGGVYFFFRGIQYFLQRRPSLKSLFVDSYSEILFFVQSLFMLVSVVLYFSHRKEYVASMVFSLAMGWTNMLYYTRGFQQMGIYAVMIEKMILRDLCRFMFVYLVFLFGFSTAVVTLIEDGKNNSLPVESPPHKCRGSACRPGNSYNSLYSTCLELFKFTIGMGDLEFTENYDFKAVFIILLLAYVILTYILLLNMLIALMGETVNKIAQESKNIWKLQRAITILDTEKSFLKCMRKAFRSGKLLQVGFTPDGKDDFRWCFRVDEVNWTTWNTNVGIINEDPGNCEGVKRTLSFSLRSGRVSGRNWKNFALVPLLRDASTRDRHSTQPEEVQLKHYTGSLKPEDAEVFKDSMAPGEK
# Assay Explanation: Signal transduction of receptors of the TRP-protein family in retinal slices
# Format: cell-based, mice
# Assay Setup: 10 and 50 μmol, capsaicin 10 μmol or acid pH; compared with native FA
Property Measured: Relative effect on TRPV-1 signal transduction (current response)

# annotated cases, reported Relative effect on TRPV-1 signal transduction (current response) shown
# Compound, Result
data = [
    ("CCCCCCCC/C(=C/CCCCCCCC(=O)O)[N+](=O)[O-] [compound 3, 10-nitro-cis-oleic acid]", "++"),
    ("CCCCCC=CCC=C(CC=CC/C=C\\CCCC(=O)O)[N+](=O)[O-]", "+"),
    ("CCCCCCCC/C=C(/CCCCCCCC(=O)O)[N+](=O)[O-] [compound 1, 9-nitro cis-oleic acid]", "++"),
    ("CCCCC/C=C\\C/C(=C\\CCCCCCCC(=O)O)[N+](=O)[O-] [compound 2, 10-nitro-cis-linoleic acid]", "++"),
]

Could you now consider this next compound?
Recorded Relative effect on TRPV-1 signal transduction (current response) of `CC/C=C\C/C=C\C/C=C(/CCCCCCCC(=O)O)[N+](=O)[O-]` , please.
+

* * *

# Test system: female Sprague-Dawley rats
# Assay Explanation: Fibrogenesis in an in-vivo model of soft implant implantation; note: key: 0: not superior to native FA (control); +: Superior to native FA; ++: superior to both; +++: outstanding effect
# Design: species or system rat
# Assay Setup: subcutaneous implants, 120 days, compared with native FA
# Experimental: Silicone bag-gel miniprostheses (POLYTECH Health & Aesthetics GmbH, Dieburg, Germany) having a diameter of 2 cm and a volume of approximately 2 ml were used. […] The experimentally used implant models had two small tags which allowed the implants to be suspended during the coating procedures. Each implant was treated in the following manner: cleaning by sonication for 2 min each in the following sequence of solvents: acetone, toluene, acetone, ethanol, and water. […]
Property Measured: Relative effect of surface coating on fibrogenesis around silicone implants

# annotated cases, reported Relative effect of surface coating on fibrogenesis around silicone implants shown
# Compound, Target Or Test System, Result
records = [
    ("CCCCCCCC/C(=C/CCCCCCCC(=O)O)[N+](=O)[O-] [compound 3, 10-nitro-cis-oleic acid]", "female Sprague-Dawley rats", "++"),
    ("CCCCCC=CCC=C(CC=CC/C=C\\CCCC(=O)O)[N+](=O)[O-]", "female Sprague-Dawley rats", "++"),
    ("CCCCCCCC/C=C(/CCCCCCCC(=O)O)[N+](=O)[O-] [compound 1, 9-nitro cis-oleic acid]", "female Sprague-Dawley rats", "++"),
    ("CCCCC/C=C\\C/C(=C\\CCCCCCCC(=O)O)[N+](=O)[O-] [compound 2, 10-nitro-cis-linoleic acid]", "female Sprague-Dawley rats", "++"),
    ("CC/C=C\\C/C=C\\C/C=C(/CCCCCCCC(=O)O)[N+](=O)[O-]", "female Sprague-Dawley rats", "++"),
]

Request - read-out Relative effect of surface coating on fibrogenesis around silicone implants | tested on female Sprague-Dawley rats | compound `CCCCC=C(C=CC=CCCCCCCCC(=O)O)[N+](=O)[O-]`
+

Request - read-out Relative effect of surface coating on fibrogenesis around silicone implants | tested on female Sprague-Dawley rats | compound `CCCCCC/C=C(/CCCCCCCC(=O)O)[N+](=O)[O-]`
+

Request - read-out Relative effect of surface coating on fibrogenesis around silicone implants | tested on female Sprague-Dawley rats | compound `CCCCCC=CCC=C(CC=CCC=CCCCC(=O)O)[N+](=O)[O-]`
+
